The reported numbers originate from patent US20240124597A1.

Here the recorded koff is given for each entry.
Target: T1, human-CD40-monomer protein (human, UniProt P25942 21-193, limits assumed)
T1 construct: Soluble monomer generated in house, used as SPR analyte; also called hCD40; hCD40-monomer
T1 sequence (P25942 21-193 limits assumed): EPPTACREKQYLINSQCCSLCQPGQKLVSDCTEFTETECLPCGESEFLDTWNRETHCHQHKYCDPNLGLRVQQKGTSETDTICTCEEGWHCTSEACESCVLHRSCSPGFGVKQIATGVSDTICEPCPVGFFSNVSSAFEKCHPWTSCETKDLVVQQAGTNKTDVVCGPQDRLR
Test: SPR, Ab captured on protein A, 1 uM hCD40 monomer, single concentration, apparent value
Your answer is read as s⁻¹, so omit the unit and give the number.

Data point: ADX_Y1072.ZZ0-1 (antibody, V domains shown, Mouse anti-human-CD40 antibody) VH: QVQFQQSGAELARPGASVKLSCKASGYTFTSYWMQWVKQRPGQGLEWIGTIYPGDGDSRYNQKFKGKALLTADKSSSIAYMQLNSLASEDSAVYFCARFSLYDGYPYYFDYWGQGTTLTVSS VL: DVVMTQTPLSLPVSLGDQASISCRSSQSLVHRNGNTYLHWYLQKPGQSPKLLIYRVSNRFSGVPDRFSGSGSGTDFTLKISRVEAEDLGIYFCSQSTHFPYTFGGGTKLEIK ; koff = 0.0092

New cases:
# koff of ADX_Y1268.ZZ0-1 (antibody, V domains shown, Mouse anti-human-CD40 antibody) VH: QVQLQQPGAELVKPGASVRLSCKASGYAFTSYWMHWVKQRPGQGLEWIGQINPSNGRSQYNEKFKTMATLTVDKSSSTAYIQLSSLTSEDSAVYYCARWGLQPFAYWGQGTLVTVSA VL: DIVMTQSHKFMSTSVGDRVSITCKASQDVSTAVAWYQQKPGQSPKLLIYSASYRYTGVPDRFTGSGSGTDFTFTISSVQAEDLAVYYCQQHYSTPWTFGGGTKLEIK = 0.00046

response.value for ADX_Y1262.ZZ0-1 (antibody, V domains shown, Mouse anti-human-CD40 antibody) VH: QVQLQQSGAELAKPGSSVKMSCKASGYAFTSYWMHWVKQRPGQGLEWIGYINPTTGYSAYNQKFKDKATLTADKSSSTAYMQLNSLTSEDSAVYYCARWDPRPFAYWGQGTLVTVSA VL: DIVMTQSHKFMSTSVGDRVSITCKASQDVSTAVAWYQQKPGQSPKLLIYSASYRYTGVPDRFTGSGYGTDFTFTISSVQAEDLAVYYCQQHYSTPWTFGGGTKLEIK (field: koff) = 0.0025
